These measurements were taken from ChEMBL document CHEMBL4665690.

Tested on: SW480
experimental.protocol: Cytotoxicity against human SW480 cells assessed as reduction in cell viability after 48 hrs by MTT assay
Type: functional, cell-based
setup.conditions: SW480, 48 h
pIC50: −log10 of the molar value.
experimental.readout: pIC50

Worked cases, answers included:
compound	experimental.readout	measured.result
C[C@]1(CO)CCC[C@]2(C)C3=C(CC[C@@H]12)C(=O)OC3	pIC50	< 4.40
CC(=O)N[C@H](CC(=O)O[C@@H]1C[C@](C)(CO)[C@@H]2CCC3=C(COC3=O)[C@@]2(C)C1)c1ccccc1	pIC50	< 4.40

What reported pIC50 corresponds to CC(=O)N[C@H](CC(=O)O[C@@H]1C[C@](C)(C=O)[C@@H]2CCC3=C(COC3=O)[C@@]2(C)C1)c1ccccc1 on SW480?
4.79

Value wanted: pIC50 (SW480) of entry CC(=O)N[C@H](CC(=O)O[C@@H]1CC(C)(C)[C@@H]2CCC3=C(COC3=O)[C@@]2(C)C1)c1ccccc1
4.91

Query the reported pIC50 for SW480; item: CC(=O)O[C@H]1C(=O)[C@@]2(C)[C@H]([C@H](OC(=O)c3ccccc3)[C@]3(O)C[C@H](OC(=O)[C@H](O)[C@@H](NC(=O)c4ccccc4)c4ccccc4)C(C)=C1C3(C)C)[C@]1(OC(C)=O)CO[C@@H]1C[C@@H]2O [PACLITAXEL]
> 8.10

Recall the recorded pIC50 for CC(=O)N[C@H](CC(=O)OC[C@@]1(C)CCC[C@]2(C)C3=C(CC[C@@H]12)C(=O)OC3)c1ccccc1 with SW480 and state it.
< 4.40
